Data origin: ChEMBL document CHEMBL3988442

# Measured target: Shiga toxin 2 (Escherichia coli O157:H7) (UniProt P09385+P09386)
# Test method notes: E. coli 0.157:H7 Shiga Toxin SOP - stx2 screening assay
# Assay type: functional
# Set-up: scale not given: direction of the effect not stated beside the values
# Measurement parameters: 30 µM
Measured quantity: Percent Effect (%)
Numeric only. Scale: %

Lookup: I would be grateful if you could share the reported Percent Effect for CN(Cc1nccs1)c1nc(-c2ccccn2)nc2c1CCNCC2 .
Found: -12.4

Lookup: I would be grateful if you could share the reported Percent Effect for COCCc1noc(CN2CCCC(Cn3nc(C)nc3C)C2)n1 (stereo unspecified) .
Found: 22.8

Lookup: I would be grateful if you could share the reported Percent Effect for CS(=O)(=O)c1ccc(NC(=O)N2CCc3sccc3C2)cn1 .
Found: -38

Lookup: I would be grateful if you could share the reported Percent Effect for c1cnnc(NCC2CN(Cc3cccc4c3OCCO4)CCO2)c1 (stereo unspecified) .
Found: -1.74

Lookup: I would be grateful if you could share the reported Percent Effect for CCC(C)[C@H](NC(=O)c1cc(Br)ccc1-n1cnnn1)C(=O)OC (stereo partly specified) .
Found: -22.1

Lookup: I would be grateful if you could share the reported Percent Effect for O=C(NCCNc1cnccn1)N1CCN(Cc2cccnc2)CC1 .
Found: -68.8
